Reference source: PubChem BioAssay (NCI)

For each entry below, report its growth inhibition value.
measurement notes: NCI Yeast Anticancer Drug Screen. Data for the wt2 strain (AID 169);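 note: 0% = growth of vehicle-treated yeast cultures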
conditions: S. cerevisiae wt2 strain growth inhibition; at 1.2 µM; active compounds read high
About 79,000 compounds went through this panel and 15% of them were active in at least one assay; those are over-represented in the sample as a whole.
Numeric only. Scale: %

Req: Can you share its growth inhibition? I mean this molecule: CCCCCC/C(C)=N/Nc1ccc([N+](=O)[O-])cc1[N+](=O)[O-]
Resp: -13

Req: Can you share its growth inhibition? I mean this molecule: O=C1OC(c2ccc(Cl)cc2)Sc2ccccc21 (configuration not stated)
Resp: 6

Req: Can you share its growth inhibition? I mean this molecule: CSc1ccc2c(c1)C(N1CCN(C)CC1)Cc1ccccc1S2 (configuration not stated)
Resp: -59

Req: Can you share its growth inhibition? I mean this molecule: O=C(O)/C=C\C(=O)NNc1ccc(Br)cc1
Resp: 13

Req: Can you share its growth inhibition? I mean this molecule: O=Cn1c2ccccc2c2ccccc21
Resp: -12

Req: Can you share its growth inhibition? I mean this molecule: O=C1C(C(O)(C(F)(F)F)C(F)(F)F)CCC1C(O)(C(F)(F)F)C(F)(F)F (configuration not stated)
Resp: 1

Req: Can you share its growth inhibition? I mean this molecule: NNc1nnc(-c2ccccc2)nc1Cc1ccccc1
Resp: -34

Req: Can you share its growth inhibition? I mean this molecule: Cc1cnc(/C=N\NC(N)=S)c2cccc(N)c12
Resp: -73

Req: Can you share its growth inhibition? I mean this molecule: CN1CCN(c2ccc3nc(-c4ccc5nc(-c6ccc(O)cc6)[nH]c5c4)[nH]c3c2)CC1
Resp: -17

Req: Can you share its growth inhibition? I mean this molecule: CCC1SC(=S)N(c2ccc(Cl)cc2)C1=O (configuration not stated)
Resp: -5

Req: Can you share its growth inhibition? I mean this molecule: O=C1C=CC(=O)N1c1ccc(Br)cc1Cl
Resp: 76

Req: Can you share its growth inhibition? I mean this molecule: NCC(O)CSCc1ccc(Cl)cc1 (configuration not stated)
Resp: -6

====

measurement notes: NCI Yeast Anticancer Drug Screen. Data for the mlh1 strain (AID 171);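 note: 0% = growth of vehicle-treated control cultures of the same strain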
conditions: S. cerevisiae mlh1 strain growth inhibition; at 1.2 µM; active compounds read high
About 79,000 compounds went through this panel and 15% of them were active in at least one assay; those are over-represented in the sample as a whole.
For each entry below, report its growth inhibition value.
Numeric only. Scale: %

Req: Can you share its growth inhibition? I mean this compound: C[n+]1c(-c2ccc(NC(=O)c3ccc(C(=O)Nc4ccc(-c5cn6ccccc6[n+]5C)cc4)cc3)cc2)cn2ccccc21
Resp: 2

Req: Can you share its growth inhibition? I mean this compound: CCOc1ccccc1N1C(=O)CC(Sc2ccccc2N)C1=O (stereo not given)
Resp: -10

Req: Can you share its growth inhibition? I mean this compound: O=C1OC(c2ccc(Cl)cc2)Sc2ccccc21 (stereo not given)
Resp: 6

Req: Can you share its growth inhibition? I mean this compound: O=S(=O)(CCC[C@H]1[C@@H](CCOCc2ccccc2)C2CCCN1O2)c1ccccc1 (stereo not given in full)
Resp: 3

Req: Can you share its growth inhibition? I mean this compound: CC1=NN(C(=O)CC(=O)N(C(=O)c2ccccc2)c2ccc(Cl)cc2)C(=O)C1N=Nc1ccc([N+](=O)[O-])cc1 (stereo not given)
Resp: 0

Req: Can you share its growth inhibition? I mean this compound: COc1ccc(/C=C2\S/C(=N/Nc3nc(-c4ccccc4)cs3)NC2=O)cc1OC
Resp: 13

Req: Can you share its growth inhibition? I mean this compound: Cc1ccc2oc(-c3cccc(N)c3)nc2c1
Resp: -4

Req: Can you share its growth inhibition? I mean this compound: Oc1ccc(Cc2nccc3cc(O)c(O)cc23)cc1O
Resp: -2

Req: Can you share its growth inhibition? I mean this compound: CCOC(=O)C1=C(C)NC(C)=C(C(=O)OCC)C1c1ccc(Cl)cc1
Resp: -27

Req: Can you share its growth inhibition? I mean this compound: N#C/C(=C1C=C/C(=N\O)C(Cl)=C\1)c1ccccc1
Resp: -4
